This collection of values is drawn from patent US20230346820A1.

Tested on: SARS-CoV-2
Measurement protocol: microbe, parasite or virus in culture
Condition description: Severe acute respiratory syndrome coronavirus 2, HeLa-ACE2, 24 h, read-out: CoV-2 EC50 [μM] (Geomeans, n ≥ 2)
Counter-ions that a name gives are not always drawn.
Entries annotated with measured EC50
The reply should contain only the number, in µM.

# example entries with known answers
Oc1ccc(Nc2ccnc3cc(Cl)ccc23)cc1CN1CCCC1 : 0.904
C[C@H]1O[C@@H](O[C@H]2[C@@H](O)C[C@@H](O[C@@H]3[C@@H](O)C[C@H](O[C@H]4CC[C@@]5(C)[C@H](CC[C@@H]6[C@@H]5C[C@@H](O)[C@]5(C)[C@@H](C7=CC(=O)OC7)CC[C@]65O)C4)O[C@@H]3C)O[C@@H]2C)C[C@H](O)[C@@H]1O (stereo in doubt) : 0.166
COc1ccc2nc3cc(Cl)ccc3c(Nc3cc(CN4CCCC4)c(O)c(CN4CCCC4)c3)c2n1 : 1.52
CNCc1ccc(OC)c([C@]2(N3CCC[C@H]3c3ncco3)C(=O)N(S(=O)(=O)c3ccc(OC)cc3)c3ccc(Cl)cc32)c1 : 1.93
CCCCN(CCCC)CCC(O)c1cc2c(Cl)cc(Cl)cc2c2cc(C(F)(F)F)ccc12 (stereo not shown) [Halofantrine HCl] : 1.16

Proceeding to the next compound to report its EC50.
Problem: Fill in the blank: the reported EC50 of CC(C)(C)Cn1c(N)nc2ccc(-c3[nH]c(C(C)(C)C)nc3-c3ccc(F)cc3)nc21 [Ralimetinib mesylate/LY2228820, Ralimetinib mesylate] is ____.
Result: 1.87

====

Entries annotated with measured CC50
Measurement protocol: in vitro
Condition description: human
The reply should contain only the number, in µM.

Sc1ncnc2nc[nH]c12 [Mercaptopurine] : 1.37
CC(C)(C)c1ccc(CSc2cnn(C(C)(C)C)c(=O)c2Cl)cc1 [PYRIDABEN] : 8.99
COc1ccc2c(c1)c(CC(=O)NO)c(C)n2C(=O)c1ccc(Cl)cc1 [oxametacin] : 17.7
CC/C(=C(/c1ccc(/C=C/C(=O)O)cc1)c1ccc2[nH]ncc2c1)c1ccc(F)cc1Cl [ARN-810] : 23.8

Problem: Fill in the blank: the reported CC50 of CC(=O)O[C@H]1C[C@H](O[C@H]2[C@@H](O)C[C@H](O[C@H]3[C@@H](O)C[C@H](O[C@H]4CCC5(C)[C@H](CC[C@@H]6[C@@H]5CCC5(C)[C@@H](C7=CC(=O)OC7)[C@@H](O)CC65O)C4)O[C@@H]3C)O[C@@H]2C)O[C@H](C)[C@H]1O[C@@H]1O[C@H](CO)[C@@H](O)[C@H](O)[C@H]1O (some centres unmarked) [[…]] is ____.
Result: 3.37

====

Measurement protocol: in vitro
Condition description: human, CC50 [μM] (Geomeans, n ≥ 2 except where indicated: *n = 1)
Entries annotated with measured CC50
The reply should contain only the number, in µM.

CC[C@@H](C(=O)O)[C@@H]1O[C@@H]([C@@H](C)[C@H](O)[C@H](C)C(=O)[C@H](CC)[C@H]2O[C@]3(C=C[C@@H](O)[C@]4(CC[C@@](C)([C@H]5CC[C@](O)(CC)[C@H](C)O5)O4)O3)[C@H](C)C[C@@H]2C)[C@@H](C)C[C@@H]1C : 3.47
C=C(C)[C@@H]1CC[C@]2(C(=O)OCC(N)(CO)CO)CC[C@]3(C)[C@H](CC[C@@H]4[C@@]5(C)CC[C@H](OC(C)=O)C(C)(C)[C@@H]5CC[C@]43C)[C@@H]12 : 8.19

Proceeding to the next molecule to report its CC50.
Problem: Fill in the blank: the reported CC50 of O=S(=O)(Nc1ccc(CCNC[C@H](O)c2cccnc2)cc1)c1ccc(-c2nc(-c3ccc(C(F)(F)F)cc3)cs2)cc1 is ____.
Result: 5.51
